The reported measurements were obtained from patent US20090155285A1.

Each entry below carries its reported HT-2 cell neutralization assay, IC50 (Mean ng/ml).
Target: T1, mature human TGF-β3 (human, UniProt P10600 301-412)
T1 sequence: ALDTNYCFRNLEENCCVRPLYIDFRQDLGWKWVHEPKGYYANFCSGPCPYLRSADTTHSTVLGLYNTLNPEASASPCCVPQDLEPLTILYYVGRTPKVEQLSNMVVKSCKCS
Assay: cell-based or functional assay
Observable: HT-2 cell neutralization assay, IC50 (Mean ng/ml) (ng/mL)

mAb 12.4 (antibody, human IgG4 S228P, kappa, V domains shown, Full-length monoclonal antibody, made by linking the Fab to an IgG4 Fc region) VH: QVQLVQSGAEVKKPGASVKVSCKASGYTFTSYWMNWVRQAPGQGLEWMGQIFPALGSTNYGEMFEGRVTMTTDTSTSTAYMELRSLRSDDTAVYYCARGIGNYALDAMDYWGQGTLVTVSS VL: DIQMTQSPSSLSASVGDRVTITCRASESVDWWGNSFMHWYQQKPGKAPKLLIYLASNLESGVPSRFSGSGSGTDFTLTISSLQPEDFATYYCQQNIEDPLTFGGGTKVEIKR | 5.22
mAb 4.17 (antibody, human IgG4 S228P, kappa, V domains shown, Full-length monoclonal antibody, made by linking the Fab to an IgG4 Fc region) VH: QVQLVQSGAEVKKPGASVKVSCKASGYTFTSYWMNWVRQAPGQGLEWMGQIFPFSGSTNYNEMFEGRVTMTTDTSTSTAYMELRSLRSDDTAVYYCARGIGNYALDAMDYWGQGTLVTVSS VL: DIQMTQSPSSLSASVGDRVTITCRASESVDFWGNSFMHWYQQKPGKAPKLLIYLASNLESGVPSRFSGSGSGTDFTLTISSLQPEDFATYYCQQNAEDPLTFGGGTKVEIKR | 15.8
mAb 12.7 (antibody, human IgG4 S228P, kappa, V domains shown, Full-length monoclonal antibody, made by linking the Fab to an IgG4 Fc region) VH: QVQLVQSGAEVKKPGASVKVSCKASGYTFTSEWMNWVRQAPGQGLEWMGQIFPALGSTNYNEMYEGRVTMTTDTSTSTAYMELRSLRSDDTAVYYCARGIGNYALDAMDYWGQGTLVTVSS VL: DIQMTQSPSSLSASVGDRVTITCRASESVDFYGNSFMHWYQQKPGKAPKLLIYLASNLESGVPSRFSGSGSGTDFTLTISSLQPEDFATYYCQQNIEDPLTFGGGTKVEIKR | 6.78
